Target: Ribosomal protein S6 kinase beta-1 (Homo sapiens, UniProt P23443, D18H/T412E)
Sequence (P23443 whole entry D18H/T412E): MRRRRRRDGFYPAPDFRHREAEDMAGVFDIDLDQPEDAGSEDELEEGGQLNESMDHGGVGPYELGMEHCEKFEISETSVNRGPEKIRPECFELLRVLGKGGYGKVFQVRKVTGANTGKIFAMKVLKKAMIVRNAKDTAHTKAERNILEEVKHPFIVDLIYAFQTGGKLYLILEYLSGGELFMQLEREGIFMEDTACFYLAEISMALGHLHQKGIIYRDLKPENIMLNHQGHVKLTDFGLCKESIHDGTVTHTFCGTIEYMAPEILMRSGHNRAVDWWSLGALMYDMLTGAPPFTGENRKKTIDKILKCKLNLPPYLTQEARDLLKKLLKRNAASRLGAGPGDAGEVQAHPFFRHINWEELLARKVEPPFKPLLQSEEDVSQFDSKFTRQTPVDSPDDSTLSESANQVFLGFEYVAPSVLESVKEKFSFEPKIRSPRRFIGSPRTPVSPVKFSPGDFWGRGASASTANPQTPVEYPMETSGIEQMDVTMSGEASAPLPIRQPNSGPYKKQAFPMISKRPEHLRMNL
Experiment: Inhibition of human p70S6K D18H and T412E mutant using RRRLSSLRA as substrate after 3 hrs by luciferase-luciferin-coupled chemiluminescence assay
pIC50: −log10 of the molar value.
measured_property: pIC50

>  <smiles_data>
Cc1ccc(Cl)cc1N1CCN(c2ncnc(N)c2[N+](=O)[O-])CC1

>  <measured_property>
pIC50

>  <measured_number>
8.52

$$$$
>  <smiles_data>
Cc1ccc(Cl)cc1N1CCN(c2ncnc3[nH]nc(Br)c23)CC1

>  <measured_property>
pIC50

>  <measured_number>
8.15

$$$$
>  <smiles_data>
CCCc1n[nH]c2ncnc(N3CCN(c4cc(Cl)ccc4C)CC3)c12

>  <measured_property>
pIC50

>  <measured_number>
8.22

$$$$
>  <smiles_data>
CCc1n[nH]c2ncnc(N3CCN(c4cc(Cl)cc(CCCN(CC)CC)c4C)CC3)c12

>  <measured_property>
pIC50

>  <measured_number>
8.52

$$$$
>  <smiles_data>
CCc1n[nH]c2ncnc(N3CCN(c4cc(Cl)cc(NCCN(C)C)c4C)CC3)c12

>  <measured_property>
pIC50

>  <measured_number>
8.70

$$$$
>  <smiles_data>
Cc1ccc(Cl)cc1N1CCN(c2ncnc3[nH]nc(C)c23)CC1

>  <measured_property>
pIC50

>  <measured_number>
8.05

$$$$
>  <smiles_data>
Cc1ccc(Cl)cc1N1CCN(c2ncnc3[nH]nc(C(F)(F)F)c23)CC1

>  <measured_property>
pIC50

>  <measured_number>
7.54

$$$$
>  <smiles_data>
CCc1n[nH]c2ncnc(N3CCN(c4cc(Cl)cc(NCCN(CC)CC)c4C)CC3)c12

>  <measured_property>
pIC50

>  <measured_number>
8.52

$$$$

I: Clc1cccc(N2CCN(c3ncnc4[nH]ccc34)CC2)c1
II: Cc1c(NCCN(C)C)cc(Cl)cc1N1CCN(c2ncnc3[nH]nc(Br)c23)CC1
III: CCc1n[nH]c2ncnc(N3CCN(c4cc(Cl)cc(OCCN5CCCC5)c4C)CC3)c12
IV: Nc1ncnc(N2CCN(c3cccc(Cl)c3)CC2)c1[N+](=O)[O-]
Input: Sort these molecules on pIC50 so the largest reading comes first. Give the labels in the order requested.
Output: II, III, IV, I

---

Target: Ribosomal protein S6 kinase alpha-3 (Homo sapiens, UniProt P51812)
Sequence (P51812 whole entry): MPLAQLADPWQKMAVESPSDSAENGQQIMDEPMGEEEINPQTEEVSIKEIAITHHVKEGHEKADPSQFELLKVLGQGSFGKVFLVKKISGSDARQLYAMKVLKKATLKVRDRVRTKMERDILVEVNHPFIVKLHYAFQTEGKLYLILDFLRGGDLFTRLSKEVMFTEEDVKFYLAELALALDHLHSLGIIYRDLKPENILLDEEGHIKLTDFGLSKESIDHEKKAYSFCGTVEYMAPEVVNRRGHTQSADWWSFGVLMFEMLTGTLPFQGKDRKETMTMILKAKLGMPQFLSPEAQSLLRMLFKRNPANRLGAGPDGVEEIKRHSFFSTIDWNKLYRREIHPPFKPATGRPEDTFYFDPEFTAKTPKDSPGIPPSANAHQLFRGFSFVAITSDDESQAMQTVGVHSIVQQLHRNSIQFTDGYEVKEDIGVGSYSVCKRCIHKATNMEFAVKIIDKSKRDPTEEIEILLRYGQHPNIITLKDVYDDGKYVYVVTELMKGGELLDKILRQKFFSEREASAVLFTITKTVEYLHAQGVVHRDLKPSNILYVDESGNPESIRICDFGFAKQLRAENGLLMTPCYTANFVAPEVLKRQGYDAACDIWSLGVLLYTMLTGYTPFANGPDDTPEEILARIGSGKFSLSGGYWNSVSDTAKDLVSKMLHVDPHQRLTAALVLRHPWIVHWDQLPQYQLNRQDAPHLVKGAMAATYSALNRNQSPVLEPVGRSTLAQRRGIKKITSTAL
pIC50: −log10 of the molar value.
measured_property: pIC50

I: Cc1c(NCCN(C)C)cc(Cl)cc1N1CCN(c2ncnc3[nH]nc(Br)c23)CC1
II: Cc1c(NCCN(C)C)cc(Cl)cc1N1CCN(c2ncnc3[nH]nc(C(F)(F)F)c23)CC1
Input: Given I and II , report the one with the higher recorded pIC50. Response format: the label of the selected entry.
Output: II

---

Assay: Half life in rat at 2.5 mg/kg, po
Type: ADME, organism-based
Design: dose 2.5 mg/kg, route oral
Details: in vivo
measured_property: half-life (min)

I: CCc1n[nH]c2ncnc(N3CCN(c4cc(Cl)ccc4C)CC3)c12
II: CCc1n[nH]c2ncnc(N3CCN(c4cc(Cl)cc(NCCN(C)C)c4C)CC3)c12
Input: Which of these two has the smaller recorded half-life: I or II ? Response format: the label of the selected entry.
Output: I
(I: 84 min, II: 198 min)

---

Assay: Half life in rat at 2.5 mg/kg, iv
Assay type: ADME, organism-based
Parameters: dose 2.5 mg/kg, route intravenous
Conditions: in vivo
measured_property: half-life (h)

P: CCc1n[nH]c2ncnc(N3CCN(c4cc(Cl)ccc4C)CC3)c12
Q: CCc1n[nH]c2ncnc(N3CCN(c4cc(Cl)cc(NCCN(C)C)c4C)CC3)c12
Input: Which of these two has the smaller recorded half-life: P or Q ? Response format: the label of the selected entry.
Output: Q

---

Target: Ribosomal protein S6 kinase beta-1 (Homo sapiens, UniProt P23443, D18H/T412E)
Experiment: Inhibition of human p70S6K D18H and T412E mutant using RRRLSSLRA as substrate after 3 hrs by luciferase-luciferin-coupled chemiluminescence assay
measured_property: IC50 (nM)

1: Cc1c(NCCN(C)C)cc(Cl)cc1N1CCN(c2ncnc3[nH]nc(C(F)(F)F)c23)CC1
2: CCc1n[nH]c2ncnc(N3CCN(c4cc(Cl)ccc4C)CC3)c12
3: CCc1n[nH]c2ncnc(N3CCN(c4cc(Cl)cc(OCCN(CC)CC)c4C)CC3)c12
Input: Rank items: key IC50, increasing. Give the labels in the order requested.
Output: 1, 2, 3
(1: 4 nM, 2: 6 nM, 3: 11 nM)

---

Assay: Clearance in rat at 2.5 mg/kg, iv and 2.5 mg/kg, po
Assay type: ADME, organism-based
Settings: in vivo
measured_property: clearance (mL/min/kg)

A: CCc1n[nH]c2ncnc(N3CCN(c4cc(Cl)ccc4C)CC3)c12
B: CCc1n[nH]c2ncnc(N3CCN(c4cc(Cl)cc(NCCN(C)C)c4C)CC3)c12
Input: Which of these two has the smaller recorded clearance: A or B ? Response format: the label of the selected entry.
Output: B

---

Molecular target: Ribosomal protein S6 kinase beta-1 (Homo sapiens, UniProt P23443, D18H/T412E)
Experiment: Inhibition of human p70S6K D18H and T412E mutant using RRRLSSLRA as substrate after 3 hrs by luciferase-luciferin-coupled chemiluminescence assay
measured_property: IC50 (nM)

>  <smiles_data>
Cc1ccc(Cl)cc1N1CCN(c2ncnc3[nH]nc(C(C)C)c23)CC1

>  <measured_property>
IC50

>  <units>
nM

>  <measured_number>
16

$$$$
>  <smiles_data>
CCc1n[nH]c2ncnc(N3CCN(c4cc(Cl)cc(OCCN(C)C)c4C)CC3)c12

>  <measured_property>
IC50

>  <units>
nM

>  <measured_number>
6

$$$$

A: CCc1n[nH]c2ncnc(N3CCN(c4cc(Cl)cc(CCCN5CCCC5)c4C)CC3)c12
B: CCc1n[nH]c2ncnc(N3CCN(c4cc(Cl)cc(NCCN5CCCC5)c4C)CC3)c12
C: Clc1cccc(N2CCN(c3ncnc4[nH]ncc34)CC2)c1
D: Cc1ccc(Cl)cc1N1CCN(c2ncnc3[nH]ncc23)CC1
E: Clc1cccc(N2CCN(c3[nH]cnc4ncnc3-4)CC2)c1
Input: Sort these molecules on IC50 so the largest reading comes first. Give the labels in the order requested.
Output: E, C, D, B, A
